Test system: J774.1
TEST_DESCRIPTION: Inhibition of LPS-stimulated nitric oxide production in J774.1 cells
Format: functional, cell-based
CONDITION_INFO: Mus musculus
The source made the active and inactive calls. The rule behind the calls is not given here.

COMPOUND	Activity
CC(=O)N[C@H]1[C@H](O[C@H]2[C@H](O[C@H]3O[C@H](C)[C@H](O)[C@H](O)[C@H]3O)[C@@H](NC(C)=O)[C@H](OCC[Si](C)(C)C)O[C@@H]2CO)O[C@H](CO)[C@H](O)[C@@H]1O	Active
CCCCCCCCCCCCCCC(CCCCCCCCCCCCCC)CO[C@@H]1O[C@H](CO)[C@@H](O[C@@H]2O[C@H](CO)[C@H](O)[C@H](O)[C@H]2NC(C)=O)[C@H](O[C@H]2O[C@H](C)[C@H](O)[C@H](O)[C@H]2O)[C@H]1NC(C)=O	Active
CCCCCCCCCCCCCCC(CCCCCCCCCCCCCC)CO[C@@H]1O[C@H](CO)[C@@H](O[C@@H]2O[C@H](CO)[C@H](O)[C@H](O)[C@H]2O)[C@H](O[C@H]2O[C@H](C)[C@H](O)[C@H](O)[C@H]2O)[C@H]1NC(C)=O	Active
CCCCCCCCCCCCCCC(CCCCCCCCCCCCCC)CO[C@@H]1O[C@H](CO)[C@@H](O[C@@H]2O[C@H](CO)[C@H](O)[C@H](O)[C@H]2NC(C)=O)[C@H](O[C@H]2O[C@@H](C)[C@@H](O)[C@@H](O)[C@@H]2O)[C@H]1NC(C)=O (stereo in doubt)	Active
